Attribution: patent US20250186627A1

This listing pairs molecules with measured Biodistribution: Pancreas.
system: NRG-mice bearing LNCaP tumors; experiment: Biodistribution (and PET/SPECT imaging) in NRG-mice bearing LNCaP tumors; format: in vivo; conditions: 3 h p.i., Avg
*1 amine or outer side, *2 acyl side, *3 side chain or, on linkers, in order; H or OH if unused. Where a SMILES comes first, the peptide text is derived from it. [ ]: non-standard residue; d: D form. The star is where a group is joined. ξ: configuration not given here. ξLys(Nα-CO-ξAad) = O=C(O)CCCC(NC(=O)NC(CCCCN*)C(=O)O)C(=O)O; Butanoyl(4-(4-NO2Ph)) = O=C(CCCc1ccc([N+](=O)[O-])cc1)*; DOTA = O=C(O)CN1CCN(CC(=O)O)CCN(CC(=O)*)CCN(CC(=O)O)CC1; Butanoyl(4-(4-MeO-phenyl)) = COc1ccc(CCCC(=O)*)cc1; ξAla(9-anthryl) = NC(Cc1c2ccccc2cc2ccccc12)C(=O)O; X2 = O=C(NC(CCCCN*)C(=O)O)NC(CC(F)C(=O)O)C(=O)O; X1 = O=C(C1CCC(CN[*:1])CC1)[*:2]; ξK = NCCCCC(N)C(=O)O
readout: Biodistribution: Pancreas (% ID/g)

{"molecule": "O=C([O-])CN1CCN(CC(=O)[O-])CCN(CC(=O)NCCCCC(NC(=O)CNC(=O)CCCc2ccc([N+](=O)[O-])cc2)C(=O)NCC(=O)NCC2CCC(C(=O)NC(Cc3c4ccccc4cc4ccccc34)C(=O)NCCCCC(NC(=O)NC(CC(F)C(=O)O)C(=O)O)C(=O)O)CC2)CCN(CC(=O)[O-])CC1.[68Ga+3] (stereo not drawn) [^68Ga-CCZ02025] ({Butanoyl(4-(4-NO2Ph))}-G[ξK](DOTA)G[X1][ξAla(9-anthryl)]-X2)", "unitsOfMeasure": "% ID/g", "measured": 1.13}
{"molecule": "COc1ccc(CCCC(=O)NCC(=O)NC(CCCCNC(=O)CN2CCN(CC(=O)[O-])CCN(CC(=O)[O-])CCN(CC(=O)[O-])CC2)C(=O)NCC(=O)NCC2CCC(C(=O)NC(Cc3c4ccccc4cc4ccccc34)C(=O)NCCCCC(NC(=O)NC(CCCC(=O)O)C(=O)O)C(=O)O)CC2)cc1.[68Ga+3] (stereo not drawn) [^68Ga-CCZ02009] ({Butanoyl(4-(4-MeO-phenyl))}-G[ξK](DOTA)G[X1][ξAla(9-anthryl)]-{ξLys(Nα-CO-ξAad)})", "unitsOfMeasure": "% ID/g", "measured": 1.41}
{"molecule": "COc1ccc(CCCC(=O)NCC(=O)NC(CCCCNC(=O)CN2CCN(CC(=O)[O-])CCN(CC(=O)[O-])CCN(CC(=O)[O-])CC2)CC(=O)NCC2CCC(C(=O)NC(Cc3c4ccccc4cc4ccccc34)C(=O)NCCCCC(NC(=O)NC(CCCC(=O)O)C(=O)O)C(=O)O)CC2)cc1.[68Ga+3] (stereo not drawn) [^68Ga-CCZ02015]", "unitsOfMeasure": "% ID/g", "measured": 1.10}
